- target: UniProt:P21554
- Sequence (P21554 whole entry): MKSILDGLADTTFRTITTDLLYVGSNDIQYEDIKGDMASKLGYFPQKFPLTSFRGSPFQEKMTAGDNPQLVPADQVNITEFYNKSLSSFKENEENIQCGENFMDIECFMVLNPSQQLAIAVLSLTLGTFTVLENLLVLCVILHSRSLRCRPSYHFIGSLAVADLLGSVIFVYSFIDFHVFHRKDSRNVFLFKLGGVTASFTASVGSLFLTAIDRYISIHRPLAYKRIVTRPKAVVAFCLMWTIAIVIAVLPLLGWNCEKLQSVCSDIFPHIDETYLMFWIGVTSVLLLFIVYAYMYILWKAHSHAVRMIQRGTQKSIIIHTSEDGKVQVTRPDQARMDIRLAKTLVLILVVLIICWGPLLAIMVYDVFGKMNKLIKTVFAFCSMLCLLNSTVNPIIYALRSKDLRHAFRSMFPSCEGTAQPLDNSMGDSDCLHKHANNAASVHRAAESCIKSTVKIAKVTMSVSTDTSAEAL
- experimental-details: cAMP CNR1 Hunter cell line antagonist assay (CB1 assay)
- Assay type: cell-based
- run-parameters: antagonist mode, cAMP CNR1 Hunter cells, EC80 agonist; read-out: CB1 assay, Efficacy (IC50)
measurement-kind: IC50

compound | observed
CS(=O)(=O)c1cc2c(c(S(=O)(=O)Nc3ccc(F)cc3Cl)c1)OCC(=O)N2 | ≥ 25 µM
O=C1CCOc2cc(S(=O)(=O)Nc3ccc(F)cc3F)c(Br)cc2N1 | 1 to 25 µM
CCc1cccc(NS(=O)(=O)c2cc(Br)cc3c2OCC(=O)N3)c1 | ≥ 25 µM
CC(C)CC1Oc2c(cc(Br)cc2S(=O)(=O)Nc2ccc(OC(F)(F)F)cc2)NC1=O (centres unmarked) | ≥ 25 µM

Turning now to a further record.
(Q) Indicate its recorded IC50; the compound in question is O=C1CCOc2c(cc(Br)cc2S(=O)(=O)Nc2cccc(F)c2)N1
(A) ≥ 25 µM

* * *

- target: UniProt P21554
- experimental-details: cAMP CNR1 Hunter cell line antagonist assay (CB1 assay)
- run-parameters: antagonist mode, cAMP CNR1 Hunter cells, EC80 agonist; read-out: CB1 assay, Efficacy (IC50)
- Description: cAMP CNR1 Hunter cell line (Eurofins DiscoveryX) were expanded from freezer stocks and seeded in a total volume of 20 μL into white walled, 384-well microplates and incubated at 37° C. for the appropriate time prior to testing. […] Microplates were read following signal generation with a PerkinElmer Envision™ instrument for chemiluminescent signal detection. Compound activity (IC50) was analyzed using CBIS data analysis suite (ChemInnovation, CA).
The reader will find reported IC50 values listed item by item below.

Observe how each entry below is paired with its result.
compound | IC50
CS(=O)(=O)c1cc2c(c(S(=O)(=O)Nc3ccccc3)c1)OCC(=O)N2 [BC19482] | ≥ 25 µM
CC1Oc2c(cc(Cl)cc2S(=O)(=O)Nc2ccc(F)c(F)c2)NC1=O (stereo not drawn) [BC19699] | 1 to 25 µM
CC1Oc2c(cc(Br)cc2S(=O)(=O)Nc2ccc(F)cc2Cl)NC1=O (stereo not drawn) [BC19289] | ≥ 25 µM

(Q) Give IC50; test system UniProt P21554; compound CC(C)(C)C1CCC(NS(=O)(=O)c2cc(Br)cc3c2OCC(=O)N3)CC1 (stereo not drawn) [BC19380]
(A) ≥ 25 µM

(Q) Identify measured IC50 obtained with UniProt P21554 for CCC1Oc2c(cc(Cl)cc2S(=O)(=O)Nc2ccc(Cl)cc2)NC1=O (stereo not drawn) [BC19740] .
(A) 1 to 25 µM

(Q) Name the recorded IC50 of CC1Oc2cc(S(=O)(=O)Nc3ccc(F)cc3Cl)c(Br)cc2N(C)C1=O (stereo not drawn) [BC19907] , assay system UniProt P21554.
(A) ≥ 25 µM

(Q) Report IC50 from UniProt P21554 testing of CCC1Oc2c(cc(Br)cc2S(=O)(=O)Nc2ccc(C)c(Cl)c2)N(C)C1=O (stereo not drawn) [BC19937]
(A) ≥ 25 µM

(Q) Consider the compound CCC1Oc2cc(S(=O)(=O)NCc3ccc(OC(F)(F)F)cc3)c(Br)cc2NC1=O (stereo not drawn) [BC19369] tested on UniProt P21554; state its IC50.
(A) ≥ 25 µM

(Q) Report IC50 under test system UniProt P21554 for CC(C)c1ccc(NS(=O)(=O)c2cc(Br)cc3c2OCCNC3=O)cc1 [BC19605] .
(A) ≥ 25 µM

These data points were gathered from patent US20240000806A1.
